System: IL-6 (THP-1 cells)
Test: Inhibition of IL-6 in LPS-stimulated THP-1 human monocyte cells (HTRF)
Type: cell-based
Conditions: inhibition of IL-6 in LPS-stimulated THP-1 cells, HTRF, 10-point dose-response starting from 10 μM
pEC50: −log10 of the molar value.
Could you label it Met if measured pEC50 is 6 or higher, and Not met otherwise?

compound: O=C(Nc1cncc(-c2cc3c(-c4cc5c(-c6ccccn6)cccc5[nH]4)n[nH]c3cn2)c1)C1CCCCC1 [Compound 163]
category-label: Not met
--
compound: CC(C)(C)C(=O)Nc1cncc(-c2cc3c(-c4cc5c(N6CCCCC6)cccc5[nH]4)n[nH]c3cn2)c1 [Compound 176]
category-label: Not met
--
compound: CCC(=O)Nc1cncc(-c2cc3c(-c4cc5c(-c6cccs6)cccc5[nH]4)n[nH]c3cn2)c1 [Compound 337]
category-label: Not met
--
compound: Fc1ccccc1-c1cccc2[nH]c(-c3n[nH]c4cnc(-c5cccnc5)cc34)cc12 [Compound 60]
category-label: Not met
--
compound: CC(C)Nc1cncc(-c2cc3c(-c4cc5c(-c6ccncc6)cccc5[nH]4)n[nH]c3cn2)c1 [Compound 124]
category-label: Not met
--
compound: CN(C)CCNc1cc(F)cc(-c2cccc3[nH]c(-c4n[nH]c5cnc(-c6cncc(NC(=O)Cc7ccccc7)c6)cc45)cc23)c1 [Compound 458]
category-label: Not met
--
compound: CS(=O)(=O)NCc1cc(F)cc(-c2cccc3[nH]c(-c4n[nH]c5cnc(-c6cncc(NC(=O)c7ccccc7)c6)cc45)cc23)c1 [Compound 487]
category-label: Not met
--
compound: c1ccc(-c2cc3c(-c4cc5c(N6CCCCC6)cccc5[nH]4)n[nH]c3cn2)nc1 [Compound 196]
category-label: Not met
--
compound: CN(C)CCNc1cc(F)cc(-c2cccc3[nH]c(-c4n[nH]c5cnc(-c6cncc(O)c6)cc45)cc23)c1 [Compound 817]
category-label: Met
--
compound: CCNCc1cncc(-c2cc3c(-c4cc5c(N6CCCCC6)cccc5[nH]4)n[nH]c3cn2)c1 [Compound 174]
category-label: Met
--
compound: CN(C)c1cncc(-c2cc3c(-c4cc5c(-c6cccs6)cccc5[nH]4)n[nH]c3cn2)c1 [Compound 343]
category-label: Not met

----------
Test system: IL-6 (THP-1 cells)
Experiment: Inhibition of IL-6 in LPS-stimulated THP-1 human monocyte cells (HTRF)
Type: cell-based
Conditions: inhibition of IL-6 in LPS-stimulated THP-1 cells, HTRF, 10-point dose-response starting from 10 μM
Procedure: Human monocyte cell line (THP-1 cells; Catalog # TIB-202, ATCC, Manassas, Va.) were cultured in Roswell Park Memorial Institute (RPMI) 1640 Medium (Catalog #21870-100, Buffalo, N.Y.) with 1% L-glutamine, 1% HEPES, 1% Sodium Pyruvate, 2% Sodium Bicarbonate supplemented with 100 units/mL penicillin, 50 μg/mL streptomycin, 2-mercaptoethanol (0.05 mM) [basal medium] and 10% fetal bovine serum (Catalog #16140089, Life Technologies, Carlsbad, Calif.) at 37° C. and 5% CO2. […]
pEC50: −log10 of the molar value.
Could you label it Criterion met if measured pEC50 is 6 or higher, and Criterion not met otherwise?

chemical-smiles: CC(C)(C)CC(=O)Nc1cncc(-c2cc3c(-c4cc5c(-c6cccc(F)c6)cccc5[nH]4)n[nH]c3cn2)c1
category-label: Criterion not met
//
chemical-smiles: O=C(Nc1cncc(-c2cc3c(-c4cc5c(-c6ccncc6)cccc5[nH]4)n[nH]c3cn2)c1)C1CCC1
category-label: Criterion met
//
chemical-smiles: O=C(Nc1cncc(-c2cc3c(-c4cc5c(-c6cccnc6)cccc5[nH]4)n[nH]c3cn2)c1)C1CC1
category-label: Criterion met
//
chemical-smiles: CC(C)(C)CC(=O)Nc1cncc(-c2cc3c(-c4cc5c(-c6ccccc6F)cccc5[nH]4)n[nH]c3cn2)c1
category-label: Criterion not met

----------
EC50 for assorted compounds
Tested on: IL-6 (THP-1 cells)
Test: Inhibition of IL-6 in LPS-stimulated THP-1 human monocyte cells (HTRF)
Type: cell-based
Settings: inhibition of IL-6 in LPS-stimulated THP-1 cells, HTRF, 10-point dose-response starting from 10 μM
measured-metric: EC50

compound: c1csc(-c2cccc3[nH]c(-c4n[nH]c5cnc(C6CCNCC6)cc45)cc23)c1 [Compound 725]
measured-target: IL-6 (THP-1 cells)
result: > 10 µM
--
compound: O=C(Nc1cncc(-c2cc3c(-c4cc5c(-c6ccccc6F)cccc5[nH]4)n[nH]c3cn2)c1)C1CC1 [Compound 76]
measured-target: IL-6 (THP-1 cells)
result: > 10 µM
--
compound: c1cc(-c2ccoc2)c2cc(-c3n[nH]c4cnc(-c5cn[nH]c5)cc34)[nH]c2c1 [Compound 711]
measured-target: IL-6 (THP-1 cells)
result: > 10 µM

----------
Test system: IL-6 (THP-1 cells)
Experiment: Inhibition of IL-6 in LPS-stimulated THP-1 human monocyte cells (HTRF)
Format: cell-based
Conditions: inhibition of IL-6 in LPS-stimulated THP-1 cells, HTRF, 10-point dose-response starting from 10 μM

chemical-smiles: c1cnc2cc(-c3n[nH]c4cnc(-c5cncc(CNCC6CCCC6)c5)cc34)[nH]c2c1
EC50, nM: 999

chemical-smiles: CN1CCN(c2cccc3[nH]c(-c4n[nH]c5cnc(-c6cncc(NC(=O)C7CCC7)c6)cc45)cc23)CC1
EC50, nM: 967

chemical-smiles: CN(C)CCNc1cc(F)cc(-c2cccc3[nH]c(-c4n[nH]c5cnc(-c6cncc(NC(=O)C7CC7)c6)cc45)cc23)c1
EC50, nM: 866

----------
pEC50 for assorted compounds
Test system: IL-6 (THP-1 cells)
Test: Inhibition of IL-6 in LPS-stimulated THP-1 human monocyte cells (HTRF)
Format: cell-based
Conditions: inhibition of IL-6 in LPS-stimulated THP-1 cells, HTRF, 10-point dose-response starting from 10 μM
pEC50: −log10 of the molar value.
measured-metric: pEC50

compound: CN(C)CCOc1cncc(-c2cc3c(-c4cc5c(-c6cccnc6)cccc5[nH]4)n[nH]c3cn2)c1 [Compound 591]
measured-metric: pEC50
number: 5.84
//
compound: CN(C)Cc1cncc(-c2cc3c(-c4cc5c(-c6ccccn6)cccc5[nH]4)n[nH]c3cn2)c1 [Compound 153]
measured-metric: pEC50
number: 6.00
//
compound: CN1CCN(c2cccc3[nH]c(-c4n[nH]c5cnc(-c6cncc(N)c6)cc45)cc23)CC1 [Compound 227]
measured-metric: pEC50
number: 5.97
